Notes on MMP assays efficacy (%) HepG2 obtained with HepG2 cells.
measurementKind: MMP assays efficacy (%) HepG2

> print(dat)
                                   compound    result
1  N#Cc1c2ccccc2cc2ccccc12 [Compound 9-Cyanoanthracene]  inactive
2  CCCC[P+](CCCC)(CCCC)CCCC.[Cl-] [Tetrabutylphosphonium chloride]  inactive
3  CSc1nc(NC2CC2)nc(NC(C)(C)C)n1 [Cybutryne]  inactive

---

- Tested on: HepG2 cells
- assayProcedure: cells
- details: Homo sapiens, HepG2, read-out: MMP assays efficacy (%) HepG2
measurementKind: Emax

molecule	tgt	result
CC(C)=CCOc1ccc(/C=C/C(=O)c2ccc(OCC=C(C)C)cc2OCC(=O)O)cc1	HepG2 cells	92%
O=[N+]([O-])c1c2ccccc2cc2ccccc12	HepG2 cells	88%
CC(=O)O[C@H]1C[C@H](O[C@H]2[C@@H](O)C[C@H](O[C@H]3[C@@H](O)C[C@H](O[C@H]4CC[C@@]5(C)[C@H](CC[C@@H]6[C@@H]5C[C@@H](O)[C@]5(C)[C@@H](C7=CC(=O)OC7)CC[C@]65O)C4)O[C@@H]3C)O[C@@H]2C)O[C@H](C)[C@H]1O[C@@H]1O[C@H](CO)[C@@H](O)[C@H](O)[C@H]1O [Lanatoside C]	HepG2 cells	92%

---

- Tested on: rat primary hepatocytes
- assayProcedure: MMP assay in rat primary hepatocytes
- details: rat hepatocytes; mean ± SD of three experiments
measurementKind: MMP assays efficacy (%) Rat Hepatocytes

> print(dat)
                                   molecule                          measurementkind    result
1  CC(=O)Oc1ccc2c(c1)CC[C@@H]1[C@@H]2CC[C@]2(C)[C@@H](O)CC[C@@H]12 [Estradiol acetate]  MMP assays efficacy (%) Rat Hepatocytes  inactive
2           Clc1ccc(Sc2cc(Cl)c(Cl)cc2Cl)cc1  MMP assays efficacy (%) Rat Hepatocytes  inactive
3  CCC(C)(C)c1ccc(CC(C)CN2C[C@@H](C)O[C@@H](C)C2)cc1 (stereo partly drawn)  MMP assays efficacy (%) Rat Hepatocytes  inactive
4  Cl.Nc1ccc2cc3ccc(N)cc3nc2c1 [Proflavin hydrochloride]  MMP assays efficacy (%) Rat Hepatocytes   -79±34%
5      COc1ccc(/C=C/C(=O)c2ccc(OC)cc2OC)cc1  MMP assays efficacy (%) Rat Hepatocytes   -82±19%
6                  Cc1cc(Nc2ccc(O)cc2)ccc1N  MMP assays efficacy (%) Rat Hepatocytes  inactive

---

- Tested on: hNSC
- assayProcedure: MMP assay in human neural stem cells (hNSC)
- Type: cell-based
- details: Homo sapiens, Neural stem cell, 1 h, read-out: hNSC IC50 (MMP)
Catalogue of molecules with associated IC50
measurementKind: IC50 (µM)

> print(dat)
                                   molecule  measurementkind  valueunit  numericresult
1  CC(C)(C)c1cc([N+](=O)[O-])cc([N+](=O)[O-])c1O             IC50         µM           10.1
2  O=C(Nc1ccc(Oc2ccc(Cl)cc2)c(Cl)c1)c1cc(I)cc(I)c1O [Rafoxanide, reference compound]             IC50         µM           10.3
3                    O=C(Nc1ccccc1)Nc1cnns1             IC50         µM           8.39

---

- Tested on: rat primary hepatocytes
- assayProcedure: MMP assay in rat primary hepatocytes
- details: read-out: MMP assays IC50 (µM) Rat Hepatocytes; rat hepatocytes; mean ± SD of three experiments
measurementKind: IC50 (µM)

> print(dat)
                                   molecule                      tgt  valueunit  numericresult
1  CC(C)(c1cc(Br)c(OCCO)c(Br)c1)c1cc(Br)c(OCCO)c(Br)c1  rat primary hepatocytes         µM           32.8
2  CCCC(c1cc(C(C)(C)C)c(O)cc1C)c1cc(C(C)(C)C)c(O)cc1C  rat primary hepatocytes         µM           21.1
3  CCc1cc(SCc2sc(-c3ccc(C(F)(F)F)cc3)nc2CN2CCN(c3ccc(OC)cc3)CC2)ccc1OCC(=O)O  rat primary hepatocytes         µM           23.1
4  CC[C@H](NC(=O)c1cc(F)ccc1[N-]S(=O)(=O)c1cccc2cccnc12)c1ccccc1.[Na+]  rat primary hepatocytes         µM           35.9
5  CC(=O)OCCN(CCOC(C)=O)c1ccc(N=Nc2ccc([N+](=O)[O-])cc2C#N)cc1 [Disperse Red 82]  rat primary hepatocytes         µM           11.7

---

Counter-ions that a name gives are not always drawn.
Notes on MMP assays efficacy (%) Rat Hepatocytes obtained with rat primary hepatocytes.
measurementKind: MMP assays efficacy (%) Rat Hepatocytes

compound	measurementKind	numericResult
Oc1ccc(Cl)c(Cl)c1 [3,4-Dichlorophenol]	MMP assays efficacy (%) Rat Hepatocytes	-45
O=C(NCc1cccnc1)Nc1ccc([N+](=O)[O-])cc1 [Pyrinuron]	MMP assays efficacy (%) Rat Hepatocytes	-108
CCCCCCCC(=O)Oc1c(Br)cc(C#N)cc1Br [Bromoxynil octanoate]	MMP assays efficacy (%) Rat Hepatocytes	-38
CO/N=C(/C1=NOCCO1)c1ccccc1Oc1ncnc(Oc2ccccc2Cl)c1F [Fluoxastrobin]	MMP assays efficacy (%) Rat Hepatocytes	-105
CN(C)c1ccc(C(=C2C=CC(=[N+](C)C)C=C2)c2ccc(N(C)C)cc2)cc1 [Gentian violet]	MMP assays efficacy (%) Rat Hepatocytes	-70
CC(C)C[C@H]1C(=O)N2CCC[C@H]2[C@]2(O)O[C@](NC(=O)[C@@H]3C=C4c5cccc6[nH]c(Br)c(c56)C[C@H]4N(C)C3)(C(C)C)C(=O)N12 [Bromocriptine mesylate]	MMP assays efficacy (%) Rat Hepatocytes	-74
CCN1\C(=C/C=C/C=C/c2sc3ccccc3[n+]2CC)Sc2ccccc21.[Cl-] [Dithiazanine chloride]	MMP assays efficacy (%) Rat Hepatocytes	-77
O=C1c2ccccc2C(=O)c2cc(O)ccc21 [Compound 2-Hydroxyanthraquinone]	MMP assays efficacy (%) Rat Hepatocytes	-68
CCCN(CC1CC1)c1c([N+](=O)[O-])cc(C(F)(F)F)cc1[N+](=O)[O-] [Profluralin]	MMP assays efficacy (%) Rat Hepatocytes	-37
Cc1cc(Nc2ccccc2C(=O)O)ccc1Cl	MMP assays efficacy (%) Rat Hepatocytes	-92

---

- Tested on: rat primary hepatocytes
Structures can show the parent of a compound that is named as a salt.
measurementKind: MMP assays efficacy (%) Rat Hepatocytes

> print(dat)
                                   molecule    result
1  CC(=O)O[Si](C)(OC(C)=O)OC(C)=O [Methylsilanetriyl triacetate]  inactive
2  O=S1(=O)OCC2C(CO1)C1(Cl)C(Cl)=C(Cl)C2(Cl)C1(Cl)Cl (stereo not drawn) [Endosulfan sulfate]    -80+6%
3  Oc1c(Cl)cc(Cl)cc1Sc1cc(Cl)cc(Cl)c1O [Sodium bithionolate]  inactive

---

- System: rat primary hepatocytes
Where a name gives a salt, the structure may show the parent alone.
measurementKind: MMP assays efficacy (%) Rat Hepatocytes

compound	numericResult
[F][Sn]([c]1ccccc1)([c]1ccccc1)[c]1ccccc1 [Triphenyltin fluoride]	-81
CCCCCc1cc(O)c2c(c1)OC(C)(C)c1ccc(C)cc1-2 [Cannabinol]	-98
COc1ccc2cc3[n+](cc2c1OC)CCc1cc2c(cc1-3)OCO2 [Berberine chloride]	-101
C[C@@]12C(=O)OC(=O)[C@]1(C)[C@H]1CC[C@@H]2O1 [Cantharidin]	-91
Clc1ccc(C(c2ccccc2Cl)C(Cl)Cl)cc1 (stereo not drawn) [o,p'-DDD]	-45
C[C@]12O[C@H](C[C@]1(O)CO)n1c3ccccc3c3c4c(c5c6ccccc6n2c5c31)CNC4=O [lestaurtinib]	-92
CC(C)OC(=O)C(O)(c1ccc(Cl)cc1)c1ccc(Cl)cc1 [Chloropropylate]	-66
CC1(C)[C@H](C(=O)O[C@H](C#N)c2cccc(Oc3ccccc3)c2)[C@@H]1C=C(Br)Br [Deltamethrin]	-65
CSC1=N[C@@](C)(c2ccccc2)C(=O)N1Nc1ccccc1 [Fenamidone]	-56
CCOC(=O)C1(c2ccccc2)CCN(CCC(C#N)(c2ccccc2)c2ccccc2)CC1 [Diphenoxylate hydrochloride]	-81
CO[C@H]1C[C@@H]2CC[C@@H](C)[C@@](O)(O2)C(=O)C(=O)N2CCCC[C@H]2C(=O)O[C@H]([C@H](C)C[C@@H]2CC[C@@H](O)[C@H](OC)C2)CC(=O)[C@H](C)/C=C(\C)[C@@H](O)[C@@H](OC)C(=O)[C@H](C)C[C@H](C)/C=C/C=C/C=C/1C [Sirolimus]	-61
O=[N+]([O-])c1ccc2c3c(cccc13)CC2 [Compound 5-Nitroacenaphthene]	-78
CCCCCCCCSC(=O)Oc1cc(Cl)nnc1-c1ccccc1 [Pyridate]	-59
O=C(Nc1ccc(Br)cc1)c1cc(Br)cc(Br)c1O [Tribromosalan]	-96
O=C(N[C@@H]1N=C(c2ccccc2F)c2cccc3c2N(CC3)C1=O)c1cc2ccccc2[nH]1	-61
Cc1c(O)cccc1C(=O)N[C@@H](CSc1ccccc1)[C@H](O)CN1C[C@H]2CCCC[C@H]2C[C@H]1C(=O)NC(C)(C)C [Nelfinavir mesylate]	-61
Nc1nc(N)c(N)c(N)n1.O=S(=O)(O)O [tetra-Aminopyrimidine sulfate]	-55
